As a worked illustration, we turn to Ki data collected for Tyrosinase (Agaricus bisporus, UniProt O42713).
measurement.name: Ki (nM)

a. S=c1[nH]nc(C2CCCCC2)o1
b. Oc1ccc(-c2nnc(S)s2)cc1
c. S=c1[nH]nc(-c2ccncc2)s1
d. S=c1[nH]nc(-c2cccc3ccccc23)o1
e. CC(C)(C)[Si](C)(C)Oc1ccc(-c2nnc(S)s2)cc1
Challenge: Rank descending by Ki: all 5 compounds from above. Form entry: ranked labels (order as requested).
Response given: d, a, c, e, b

a. Sc1nnc(Cc2ccccc2)o1
b. Oc1ccc(-c2nnc(S)o2)cc1
c. Sc1nnc(Cc2nnc(S)s2)s1
Challenge: Please put the entries in order of rising Ki. Form entry: ranked labels (order as requested).
Response given: c, b, a
